Measured relative viability, listed per entry.
Test system: LCLC-103H
Assay: relative viability (nuclei count vs DMSO), 5 days (fraction); higher = more cells survive
Settings: first compound 2 µM
Readout label: relative viability

[[record]]
molecule = "Cc1csc(=NC2CCCCC2)n1/N=C/c1ccc(O)c(O)c1O [MIM1] + N=C(N)NC(=N)NCCc1ccccc1 [Phenformin] (partner 250 µM)"
measured = 0.354

[[record]]
molecule = "CN1CCN(CCOc2cc(OC3CCOCC3)c3c(Nc4c(Cl)ccc5c4OCO5)ncnc3c2)CC1 [Saracatinib] + Nc1ncn([C@H]2C[C@H](O)[C@@H](CO)O2)c(=O)n1 [Decitabine] (partner 2 µM)"
measured = 0.716

[[record]]
molecule = "CN1CCN(CCOc2cc(OC3CCOCC3)c3c(Nc4c(Cl)ccc5c4OCO5)ncnc3c2)CC1 [Saracatinib] + C[C@]1(O)C[C@@H](c2nc(-c3ccc4ccc(-c5ccccc5)nc4c3)c3c(N)nccn32)C1 [Linsitinib] (partner 1 µM)"
measured = 1.04

[[record]]
molecule = "Cc1csc(=NC2CCCCC2)n1/N=C/c1ccc(O)c(O)c1O [MIM1] + O=C(CCCCCCC(=O)Nc1ccccc1)NO [Vorinostat] (partner 1 µM)"
measured = 0.768

[[record]]
molecule = "CN1CCN(CCOc2cc(OC3CCOCC3)c3c(Nc4c(Cl)ccc5c4OCO5)ncnc3c2)CC1 [Saracatinib] + CC(=O)c1c(C)c2cnc(Nc3ccc(N4CCNCC4)cn3)nc2n(C2CCCC2)c1=O [Palbociclib] (partner 0.5 µM)"
measured = 0.461

[[record]]
molecule = "Cc1csc(=NC2CCCCC2)n1/N=C/c1ccc(O)c(O)c1O [MIM1] + CS(=O)(=O)N1CCN(Cc2cc3nc(-c4cccc5[nH]ncc45)nc(N4CCOCC4)c3s2)CC1 [Pictilisib] (partner 1 µM)"
measured = 0.608

[[record]]
molecule = "Cc1csc(=NC2CCCCC2)n1/N=C/c1ccc(O)c(O)c1O [MIM1] + C[C@@H](Oc1cc(-c2cnn(C3CCNCC3)c2)cnc1N)c1c(Cl)ccc(F)c1Cl [Crizotinib] (partner 1 µM)"
measured = 1.1

[[record]]
molecule = "Cc1csc(=NC2CCCCC2)n1/N=C/c1ccc(O)c(O)c1O [MIM1] + CC(=O)c1c(C)c2cnc(Nc3ccc(N4CCNCC4)cn3)nc2n(C2CCCC2)c1=O [Palbociclib] (partner 0.5 µM)"
measured = 0.477

[[record]]
molecule = "CN1CCN(CCOc2cc(OC3CCOCC3)c3c(Nc4c(Cl)ccc5c4OCO5)ncnc3c2)CC1 [Saracatinib] + CC(C)C[C@H](NC(=O)[C@H](Cc1ccccc1)NC(=O)c1cnccn1)B(O)O [Bortezomib] (partner 0.002 µM)"
measured = 0.941


* * *

Test system: CAL-12T
Test: relative viability (nuclei count vs DMSO), 5 days (fraction); higher = more cells survive
Details: first compound 0.006325 µM
Measured relative viability, listed per entry.
Readout label: relative viability

[[record]]
compound = "CCNC(=O)c1noc(-c2cc(C(C)C)c(O)cc2O)c1-c1ccc(CN2CCOCC2)cc1 [Luminespib] + NC(=O)Nc1cc(-c2cccc(F)c2)sc1C(=O)N[C@H]1CCCNC1 [AZD7762] (partner 0.2 µM)"
study_system = "CAL-12T"
readout_label = "relative viability"
measured = 0.691

[[record]]
compound = "CCNC(=O)c1noc(-c2cc(C(C)C)c(O)cc2O)c1-c1ccc(CN2CCOCC2)cc1 [Luminespib] + O=C(CCCCCCC(=O)Nc1ccccc1)NO [Vorinostat] (partner 1 µM)"
study_system = "CAL-12T"
readout_label = "relative viability"
measured = 0.802

[[record]]
compound = "CCNC(=O)c1noc(-c2cc(C(C)C)c(O)cc2O)c1-c1ccc(CN2CCOCC2)cc1 [Luminespib] + CC(C)C[C@H](NC(=O)[C@H](Cc1ccccc1)NC(=O)c1cnccn1)B(O)O [Bortezomib] (partner 0.002 µM)"
study_system = "CAL-12T"
readout_label = "relative viability"
measured = 0.929


Cited source for all entries: the supplement of paper PMC10307832
